For each of the compounds below, state its log10 EC50.
Test system: MKN45 cells
Test: MKN45 cell proliferation assay (Cell-Titer-Glo, 120 hr)
Assay type: cell-based
Settings: Homo sapiens, MKN-45, 120 h, read-out: MKN45 Cell Prolif. 120 hr EC50
In our notation, the value equals log10 of EC50 in nM.

Inquiry: What value of log10 EC50 has been recorded for this entry: COC[C@@H]1CN(Cc2cc(F)c3nc(N4CCC(O)CC4)ncc3c2)C[C@H]1Oc1ccc2c(c1)CN([C@H]1CCC(=O)NC1=O)C2=O
Reply text: 0.30

Inquiry: What value of log10 EC50 has been recorded for this entry: O=C1CC[C@H](N2Cc3cc(O[C@H]4CN(Cc5cc(F)c6nc(C7CCOCC7)ccc6c5)C[C@@H]4c4ccncc4)ccc3C2=O)C(=O)N1 (relative stereo)
Reply text: 1.36

Inquiry: What value of log10 EC50 has been recorded for this entry: COC[C@@H]1CN(Cc2cc(F)c3nc(C4CCN(CC(F)(F)F)C4)ccc3c2)C[C@H]1Oc1ccc2c(c1)CN([C@H]1CCC(=O)NC1=O)C2=O (relative stereo)
Reply text: 0.00

Inquiry: What value of log10 EC50 has been recorded for this entry: COC[C@@H]1CN(Cc2cnc3nc(C4CCOCC4)ccc3c2)C[C@H]1Oc1ccc2c(c1)CN([C@H]1CCC(=O)NC1=O)C2=O
Reply text: 1.00

Inquiry: What value of log10 EC50 has been recorded for this entry: COC[C@@H]1CN(Cc2cc(F)c3nc(C4CCCCO4)ncc3c2)C[C@H]1Oc1ccc2c(c1)CN([C@H]1CCC(=O)NC1=O)C2=O (relative stereo)
Reply text: 0.95

Inquiry: What value of log10 EC50 has been recorded for this entry: CN1CC[C@]2(C[C@H](c3ccc4cc(CN5CC[C@H](Oc6ccc7c(c6)CN([C@H]6CCC(=O)NC6=O)C7=O)C5)ccc4n3)CO2)C1 (relative stereo)
Reply text: 1.28

----------
Target: WEE1 (Homo sapiens, UniProt P30291+Q96SW2)
Construct: C-terminal ePL-tagged (DiscoverX, Fremont, CA) full-length WEE1 expression construct; expressed in transfected cells; host or cells: LentiX-HEK293T (Invitrogen), lentivirally transduced; the cells also over-express GSPT1-GN
Sequence (P30291 whole entry): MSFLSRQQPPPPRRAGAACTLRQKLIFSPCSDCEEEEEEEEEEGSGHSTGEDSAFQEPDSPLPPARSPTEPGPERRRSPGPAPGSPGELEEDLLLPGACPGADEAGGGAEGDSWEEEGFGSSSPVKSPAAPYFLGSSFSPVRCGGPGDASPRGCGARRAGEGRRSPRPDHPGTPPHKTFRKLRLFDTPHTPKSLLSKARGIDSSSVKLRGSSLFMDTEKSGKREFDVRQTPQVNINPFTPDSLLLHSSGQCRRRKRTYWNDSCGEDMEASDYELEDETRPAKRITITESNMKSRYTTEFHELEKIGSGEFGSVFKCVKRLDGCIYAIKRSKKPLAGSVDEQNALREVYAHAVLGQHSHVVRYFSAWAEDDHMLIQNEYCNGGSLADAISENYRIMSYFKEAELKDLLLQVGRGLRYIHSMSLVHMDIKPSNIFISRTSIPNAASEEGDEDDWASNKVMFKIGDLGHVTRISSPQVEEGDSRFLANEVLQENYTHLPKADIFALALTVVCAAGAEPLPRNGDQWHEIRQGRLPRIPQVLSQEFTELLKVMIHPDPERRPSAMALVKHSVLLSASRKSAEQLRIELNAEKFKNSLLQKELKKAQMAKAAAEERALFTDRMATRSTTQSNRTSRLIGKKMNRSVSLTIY
Sequence (Q96SW2 whole entry): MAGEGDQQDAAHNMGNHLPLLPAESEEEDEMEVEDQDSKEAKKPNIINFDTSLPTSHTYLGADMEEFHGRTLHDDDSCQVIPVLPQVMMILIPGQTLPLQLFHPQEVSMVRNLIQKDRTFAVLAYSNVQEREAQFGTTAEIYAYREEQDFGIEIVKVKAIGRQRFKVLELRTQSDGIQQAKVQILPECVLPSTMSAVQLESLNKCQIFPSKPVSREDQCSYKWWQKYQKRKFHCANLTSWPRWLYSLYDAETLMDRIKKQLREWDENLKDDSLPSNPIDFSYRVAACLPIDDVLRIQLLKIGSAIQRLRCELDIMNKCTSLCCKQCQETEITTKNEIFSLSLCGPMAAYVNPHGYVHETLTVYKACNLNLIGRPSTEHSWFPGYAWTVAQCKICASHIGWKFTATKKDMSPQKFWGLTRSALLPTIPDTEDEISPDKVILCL
Sequence (Q16531 whole entry partner): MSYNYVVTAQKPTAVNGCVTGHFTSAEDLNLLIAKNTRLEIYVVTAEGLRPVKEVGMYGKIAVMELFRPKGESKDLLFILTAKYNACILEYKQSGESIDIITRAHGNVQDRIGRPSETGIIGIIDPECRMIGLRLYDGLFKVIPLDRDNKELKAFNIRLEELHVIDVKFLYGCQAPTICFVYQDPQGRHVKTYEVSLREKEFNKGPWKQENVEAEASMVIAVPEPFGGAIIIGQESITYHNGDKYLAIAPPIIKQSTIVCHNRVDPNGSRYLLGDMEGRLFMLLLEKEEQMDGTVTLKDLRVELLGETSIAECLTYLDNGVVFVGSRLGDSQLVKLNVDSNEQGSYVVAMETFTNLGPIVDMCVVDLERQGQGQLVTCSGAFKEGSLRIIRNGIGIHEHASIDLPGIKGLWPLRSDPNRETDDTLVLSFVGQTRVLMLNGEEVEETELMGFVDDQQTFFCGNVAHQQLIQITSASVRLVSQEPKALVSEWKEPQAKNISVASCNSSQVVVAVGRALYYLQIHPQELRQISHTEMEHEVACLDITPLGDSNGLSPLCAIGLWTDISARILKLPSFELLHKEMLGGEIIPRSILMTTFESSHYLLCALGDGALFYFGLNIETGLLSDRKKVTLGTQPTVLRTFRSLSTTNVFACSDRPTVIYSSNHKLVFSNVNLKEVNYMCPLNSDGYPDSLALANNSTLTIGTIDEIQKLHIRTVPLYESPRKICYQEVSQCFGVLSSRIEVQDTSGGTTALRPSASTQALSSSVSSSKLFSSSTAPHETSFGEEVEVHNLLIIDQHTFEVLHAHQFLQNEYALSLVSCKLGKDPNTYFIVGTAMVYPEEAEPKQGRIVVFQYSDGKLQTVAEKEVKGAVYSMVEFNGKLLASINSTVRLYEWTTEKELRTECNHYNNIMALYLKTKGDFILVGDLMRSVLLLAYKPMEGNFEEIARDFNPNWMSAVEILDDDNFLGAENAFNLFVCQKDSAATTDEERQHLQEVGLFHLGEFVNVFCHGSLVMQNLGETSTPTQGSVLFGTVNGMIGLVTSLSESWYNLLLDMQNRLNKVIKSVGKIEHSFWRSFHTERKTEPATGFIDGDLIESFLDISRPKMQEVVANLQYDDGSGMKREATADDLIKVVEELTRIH
Test: WEE1-ePL degradation assay (293T-LentiX, InCELL Hunter luminescence, 4 hr)
Assay type: cell-based
Settings: LentiX-HEK293T cells expressing WEE1-ePL, 4 hr incubation; read-out: 293T-LentiX WEE1-ePL Degradation 4 hr EC50
Description: To generate LentiX-WEE1-ePL-GSPT1-ND cells for the WEE1 degradation assay, LentiX-HEK293T (Invitrogen) were tranduced by lentivirus with a C-terminal ePL-tagged (DiscoverX, Fremont, CA) full-length WEE1 expression construct. A separate lentiviral construct was introduced to over-express a mutated form of GSPT1 (NP_002085), termed GSPT1-GN, which contains a G575N mutation and is further truncated in the first 158 amino acids. GSPT1-GN is functional but not degradable by Cereblon. […]
readout-label: DC50
Report the figure along with its unit, number first.

Inquiry: Return DC50 measured with WEE1 (Homo sapiens, UniProt P30291+Q96SW2) given this molecule: COC[C@@H]1CN(Cc2cc(F)c3nc(N4CCN(C(C)=O)C5(COC5)C4)ncc3c2)C[C@H]1Oc1ccc2c(c1)CN([C@H]1CCC(=O)NC1=O)C2=O
Reply text: 3 nM

Inquiry: Return DC50 measured with WEE1 (Homo sapiens, UniProt P30291+Q96SW2) given this molecule: COC[C@@H]1CN(Cc2ccc3cc(N4CCOCC4)cnc3c2F)C[C@H]1Oc1ccc2c(c1)CN([C@H]1CCC(=O)NC1=O)C2=O
Reply text: 3 nM

Inquiry: Return DC50 measured with WEE1 (Homo sapiens, UniProt P30291+Q96SW2) given this molecule: COC[C@@H]1CN(Cc2ccc3nc(N4C[C@H]5CCO[C@H]5C4)ccc3c2)C[C@H]1Oc1ccc2c(c1)CN([C@H]1CCC(=O)NC1=O)C2=O (single isomer, unassigned)
Reply text: 1 nM

Inquiry: Return DC50 measured with WEE1 (Homo sapiens, UniProt P30291+Q96SW2) given this molecule: O=C1CC[C@H](N2Cc3cc(O[C@H]4CCN(Cc5ccc6nc([C@H]7CCO[C@]8(CCOC8)C7)ccc6c5)C4)ccc3C2=O)C(=O)N1 (relative stereo)
Reply text: 2 nM

Inquiry: Return DC50 measured with WEE1 (Homo sapiens, UniProt P30291+Q96SW2) given this molecule: O=C1CCC(N2C(=O)c3ccc(O[C@H]4CCN(Cc5cc(F)c6nc(C7CCOCC7)ccc6c5)C4)cc3C2=O)C(=O)N1 (single isomer, unassigned) [Example 11]
Reply text: 4 nM

----------
For each of the compounds below, state its DC50.
Target: WEE1 (Homo sapiens, UniProt P30291+Q96SW2)
Construct: C-terminal ePL-tagged (DiscoverX, Fremont, CA) full-length WEE1 expression construct; expressed in transfected cells; host or cells: LentiX-HEK293T (Invitrogen), lentivirally transduced; the cells also over-express GSPT1-GN
Test: WEE1-ePL degradation assay (293T-LentiX, InCELL Hunter luminescence, 4 hr)
Type: cell-based
Conditions: LentiX-HEK293T cells expressing WEE1-ePL, 4 hr incubation; read-out: 293T-LentiX WEE1-ePL Degradation 4 hr EC50
Form entry: value (nM) — number only.

Inquiry: Return DC50 measured with WEE1 (Homo sapiens, UniProt P30291+Q96SW2) given this compound: CC(C)(O)[C@@H]1CN(Cc2ccc3nc(C4CCOCC4)ccc3c2)C[C@H]1Oc1ccc2c(c1)CN([C@H]1CCC(=O)NC1=O)C2=O (racemic)
Reply text: 12

Inquiry: Return DC50 measured with WEE1 (Homo sapiens, UniProt P30291+Q96SW2) given this compound: COC[C@@H]1CN(Cc2cc3ccc(C4CCC(C(C)(C)O)CC4)cc3cn2)C[C@H]1Oc1ccc2c(c1)CN([C@H]1CCC(=O)NC1=O)C2=O (relative stereo)
Reply text: 1

Inquiry: Return DC50 measured with WEE1 (Homo sapiens, UniProt P30291+Q96SW2) given this compound: COC[C@@H]1CN(Cc2cc(F)c3nc(C4CCCN4C)ncc3c2)C[C@H]1Oc1ccc2c(c1)CN([C@H]1CCC(=O)NC1=O)C2=O (relative stereo)
Reply text: 23

Inquiry: Return DC50 measured with WEE1 (Homo sapiens, UniProt P30291+Q96SW2) given this compound: CC(C)O[C@@H]1CN(Cc2cc(F)c3nc(C4CCOCC4)ccc3c2)C[C@H]1Oc1ccc2c(c1)CN([C@H]1CCC(=O)NC1=O)C2=O
Reply text: 5

Inquiry: Return DC50 measured with WEE1 (Homo sapiens, UniProt P30291+Q96SW2) given this compound: O=C1CC[C@H](N2Cc3cc(O[C@H]4CN(Cc5cc(F)c6nc(C7CCOCC7)ccc6c5)C[C@@H]4c4ccncc4)ccc3C2=O)C(=O)N1 (relative stereo)
Reply text: 7

Inquiry: Return DC50 measured with WEE1 (Homo sapiens, UniProt P30291+Q96SW2) given this compound: O=C1CC[C@H](N2Cc3cc(O[C@H]4CCN(Cc5ccc6nc([C@@H]7CCO[C@@]8(CCOC8)C7)ccc6c5)C4)ccc3C2=O)C(=O)N1 (relative stereo)
Reply text: 1

Inquiry: Return DC50 measured with WEE1 (Homo sapiens, UniProt P30291+Q96SW2) given this compound: COC[C@@H]1CN(Cc2cc(F)c3nc(C(C)(C)O)ncc3c2)C[C@H]1Oc1ccc2c(c1)CN([C@H]1CCC(=O)NC1=O)C2=O
Reply text: 22

Inquiry: Return DC50 measured with WEE1 (Homo sapiens, UniProt P30291+Q96SW2) given this compound: COC[C@@H]1CN(Cc2cc(F)c3nc(N4CCN(C(C)=O)C5(CC5)C4)ncc3c2)C[C@H]1Oc1ccc2c(c1)CN([C@H]1CCC(=O)NC1=O)C2=O
Reply text: 1

Inquiry: Return DC50 measured with WEE1 (Homo sapiens, UniProt P30291+Q96SW2) given this compound: COC[C@@H]1CN(Cc2ccc3nc(N4CCN(C(C)=O)C5(COC5)C4)ncc3c2)C[C@H]1Oc1ccc2c(c1)CN([C@H]1CCC(=O)NC1=O)C2=O
Reply text: 2

Inquiry: Return DC50 measured with WEE1 (Homo sapiens, UniProt P30291+Q96SW2) given this compound: Cc1cc([C@H]2CN(Cc3cc(F)c4nc(C5CCOCC5)ccc4c3)C[C@@H]2Oc2ccc3c(c2)CN([C@H]2CCC(=O)NC2=O)C3=O)ccn1 (relative stereo)
Reply text: 11

Inquiry: Return DC50 measured with WEE1 (Homo sapiens, UniProt P30291+Q96SW2) given this compound: COC[C@@H]1CN(Cc2cc(F)c3nc(C4CCN(C5COC5)CC4)ncc3c2)C[C@H]1Oc1ccc2c(c1)CN([C@H]1CCC(=O)NC1=O)C2=O
Reply text: 3

----------
Target: WEE1 (Homo sapiens, UniProt P30291+Q96SW2)
Construct: C-terminal ePL-tagged (DiscoverX, Fremont, CA) full-length WEE1 expression construct; expressed in transfected cells; host or cells: LentiX-HEK293T (Invitrogen), lentivirally transduced; the cells also over-express GSPT1-GN
Assay: WEE1-ePL degradation assay (293T-LentiX, InCELL Hunter luminescence, 4 hr)
Format: cell-based
Settings: LentiX-HEK293T cells expressing WEE1-ePL, 4 hr incubation; read-out: 293T-LentiX WEE1-ePL Degradation 4 hr EC50
readout-label: DC50 (nM)
Form entry: value (nM) — number only.

Inquiry: What value of DC50 has been recorded for this entry: COC[C@@H]1CN(Cc2cc(F)c3nc(N4C[C@H]5CCO[C@H]5C4)ncc3c2)C[C@H]1Oc1ccc2c(c1)CN([C@H]1CCC(=O)NC1=O)C2=O (single isomer, unassigned) [Example 10]
Reply text: 2

Inquiry: What value of DC50 has been recorded for this entry: COC[C@@H]1CN(Cc2cc(F)c3nc(C(=O)N4CCOCC4)ccc3c2)C[C@H]1Oc1ccc2c(c1)CN([C@H]1CCC(=O)NC1=O)C2=O [Example 106]
Reply text: 4

Inquiry: What value of DC50 has been recorded for this entry: COC[C@@H]1CN(Cc2cc(F)c3nc(N4C[C@H]5C[C@@H](C4)O5)ccc3c2)C[C@H]1Oc1ccc2c(c1)CN([C@H]1CCC(=O)NC1=O)C2=O [Example 47]
Reply text: 1
